# Test system: HepG2
# method-description: Cytotoxicity against human HepG2 cells incubated for 96 hrs by MTT assay
# Type: functional
property-name: log10 GI50 (log10 of the value in µM)
# log10 transformed; quantity=GI50; unit=µM

Examples from the recorded data:
Task: Look up log10 GI50 for this molecule: COc1cc([C@H]2Oc3cc([C@H]4Oc5cc(OC(C)=O)cc(OC(C)=O)c5C(=O)[C@@H]4OC(=O)CCCCCCCCCCNC(=O)[C@]45CC[C@@H](C)[C@H](C)[C@H]4C4=CC[C@@H]6[C@@]7(C)C[C@@H](OC(C)=O)[C@H](OC(C)=O)[C@@](C)(COC(C)=O)[C@@H]7[C@H](O)C[C@@]6(C)[C@]4(C)CC5)ccc3O[C@@H]2COC(C)=O)ccc1OC(C)=O
Result: 2.30

Task: Look up log10 GI50 for this molecule: CC(=O)OC[C@@]1(C)[C@@H]2[C@H](O)C[C@]3(C)[C@H](CC=C4[C@@H]5[C@@H](C)[C@H](C)CC[C@]5(C(=O)O)CC[C@]43C)[C@@]2(C)C[C@@H](OC(C)=O)[C@@H]1OC(C)=O
Result: 1.64

Task: Look up log10 GI50 for this molecule: COc1cc([C@H]2Oc3cc([C@H]4Oc5cc(OC(C)=O)cc(OC(C)=O)c5C(=O)[C@@H]4OC(=O)CCNC(=O)[C@]45CC[C@@H](C)[C@H](C)[C@H]4C4=CC[C@@H]6[C@@]7(C)C[C@@H](OC(C)=O)[C@H](OC(C)=O)[C@@](C)(COC(C)=O)[C@@H]7[C@H](O)C[C@@]6(C)[C@]4(C)CC5)ccc3O[C@@H]2COC(C)=O)ccc1OC(C)=O
Result: 2.56

***
Task: Look up log10 GI50 for this molecule: COc1cc([C@H]2Oc3cc([C@H]4Oc5cc(O)cc(O)c5C(=O)[C@@H]4OC(=O)CCNC(=O)[C@]45CC[C@@H](C)[C@H](C)[C@H]4C4=CC[C@@H]6[C@@]7(C)C[C@@H](OC(C)=O)[C@H](OC(C)=O)[C@@](C)(COC(C)=O)C7=CC[C@@]6(C)[C@]4(C)CC5)ccc3O[C@@H]2CO)ccc1O
Result: 2.54

Task: Look up log10 GI50 for this molecule: COc1cc([C@H]2Oc3cc(-c4oc5cc(O)cc(O)c5c(=O)c4OC(=O)[C@]45CC[C@@H](C)[C@H](C)[C@H]4C4=CC[C@@H]6[C@@]7(C)C[C@@H](OC(C)=O)[C@H](OC(C)=O)[C@@](C)(COC(C)=O)[C@@H]7[C@H](O)C[C@@]6(C)[C@]4(C)CC5)ccc3O[C@@H]2CO)ccc1O
Result: 2.34

Task: Look up log10 GI50 for this molecule: COc1cc([C@H]2Oc3cc([C@H]4Oc5cc(OC(C)=O)cc(OC(C)=O)c5C(=O)[C@@H]4OC(=O)CCNC(=O)[C@]45CC[C@@H](C)[C@H](C)[C@H]4C4=CC[C@@H]6[C@@]7(C)C[C@@H](OC(C)=O)[C@H](OC(C)=O)[C@@](C)(COC(C)=O)C7=CC[C@@]6(C)[C@]4(C)CC5)ccc3O[C@@H]2COC(C)=O)ccc1OC(C)=O
Result: 2.55

Task: Look up log10 GI50 for this molecule: C[C@H]1[C@H](C)CC[C@]2(C(=O)O)CC[C@]3(C)C(=CC[C@@H]4[C@@]5(C)C[C@@H](O)[C@H](O)[C@@](C)(CO)[C@@H]5[C@H](O)C[C@]43C)[C@H]12 [MADECASSIC ACID]
Result: 2.21

Task: Look up log10 GI50 for this molecule: COc1cc([C@H]2Oc3cc([C@H]4Oc5cc(O)cc(O)c5C(=O)[C@@H]4OC(=O)CNC(=O)[C@]45CC[C@@H](C)[C@H](C)[C@H]4C4=CC[C@@H]6[C@@]7(C)C[C@@H](OC(C)=O)[C@H](OC(C)=O)[C@@](C)(COC(C)=O)[C@@H]7[C@H](O)C[C@@]6(C)[C@]4(C)CC5)ccc3O[C@@H]2CO)ccc1O
Result: 1.51

Task: Look up log10 GI50 for this molecule: COc1cc([C@H]2Oc3cc([C@H]4Oc5cc(O)cc(O)c5C(=O)[C@@H]4OC(=O)CNC(=O)[C@]45CC[C@@H](C)[C@H](C)[C@H]4C4=CC[C@@H]6[C@@]7(C)C[C@@H](OC(C)=O)[C@H](OC(C)=O)[C@@](C)(COC(C)=O)C7=CC[C@@]6(C)[C@]4(C)CC5)ccc3O[C@@H]2CO)ccc1O
Result: 2.24

Task: Look up log10 GI50 for this molecule: COc1cc([C@H]2Oc3cc([C@H]4Oc5cc(OC(C)=O)cc(OC(C)=O)c5C(=O)[C@@H]4OC(=O)CNC(=O)[C@]45CC[C@@H](C)[C@H](C)[C@H]4C4=CC[C@@H]6[C@@]7(C)C[C@@H](OC(C)=O)[C@H](OC(C)=O)[C@@](C)(COC(C)=O)C7=CC[C@@]6(C)[C@]4(C)CC5)ccc3O[C@@H]2COC(C)=O)ccc1OC(C)=O
Result: 2.39
